Origin of measurements: patent US12521393B2

- targetSystem: UniProt P02708
- protocolSummary: Nicotinic acetylcholine receptor antagonism assay, IONFlux automated patch clamp (Example 203)
- measurementParameters: antagonism of ACh-stimulated human alpha1 nAChR current, patch clamp
reportedProperty: IC50 (µM)
Report the figure in µM without appending any unit label.

Any idea what IC50 was measured for `CC(C)N(C)[C@@H]1CC[C@H](N2CC[C@H](Nc3ncnc4ccc(C(F)(F)F)cc34)C2=O)[C@H](NC(=O)[C@H]2CC[C@@H](NC(=O)CCOCCOCCOCCNC(=O)[C@H]3CC(=O)N(C)[C@@H]3c3cccnc3)CC2)C1` ?
40.9

---

- targetSystem: human alpha1 nicotinic acetylcholine (nACh) receptor (Homo sapiens, UniProt P02708)
- Sequence (P02708 21-457): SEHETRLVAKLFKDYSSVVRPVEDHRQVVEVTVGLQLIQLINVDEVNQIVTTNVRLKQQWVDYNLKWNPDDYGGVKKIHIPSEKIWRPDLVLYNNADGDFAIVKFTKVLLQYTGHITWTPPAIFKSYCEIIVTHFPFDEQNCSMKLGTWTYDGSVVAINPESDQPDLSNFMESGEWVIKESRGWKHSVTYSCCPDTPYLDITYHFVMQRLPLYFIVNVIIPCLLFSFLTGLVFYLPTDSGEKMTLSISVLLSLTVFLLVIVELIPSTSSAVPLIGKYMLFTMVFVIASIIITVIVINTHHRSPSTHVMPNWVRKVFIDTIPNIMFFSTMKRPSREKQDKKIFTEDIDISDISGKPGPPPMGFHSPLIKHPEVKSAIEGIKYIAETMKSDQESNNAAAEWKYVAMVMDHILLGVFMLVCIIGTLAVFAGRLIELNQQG
- Sequence (P11230 24-501 partner): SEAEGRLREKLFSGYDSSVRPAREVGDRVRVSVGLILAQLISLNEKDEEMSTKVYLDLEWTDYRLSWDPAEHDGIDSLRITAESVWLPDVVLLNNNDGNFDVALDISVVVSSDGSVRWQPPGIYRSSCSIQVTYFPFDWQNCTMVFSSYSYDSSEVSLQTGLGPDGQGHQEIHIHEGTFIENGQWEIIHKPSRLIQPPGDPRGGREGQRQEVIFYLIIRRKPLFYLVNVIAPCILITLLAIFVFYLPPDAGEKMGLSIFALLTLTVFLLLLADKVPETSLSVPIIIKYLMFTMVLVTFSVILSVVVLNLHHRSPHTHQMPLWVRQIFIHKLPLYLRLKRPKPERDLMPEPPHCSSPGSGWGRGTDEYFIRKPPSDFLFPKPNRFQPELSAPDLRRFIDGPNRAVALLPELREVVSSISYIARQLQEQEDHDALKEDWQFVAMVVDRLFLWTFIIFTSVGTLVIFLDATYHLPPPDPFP
- Sequence (Q07001 22-517 partner): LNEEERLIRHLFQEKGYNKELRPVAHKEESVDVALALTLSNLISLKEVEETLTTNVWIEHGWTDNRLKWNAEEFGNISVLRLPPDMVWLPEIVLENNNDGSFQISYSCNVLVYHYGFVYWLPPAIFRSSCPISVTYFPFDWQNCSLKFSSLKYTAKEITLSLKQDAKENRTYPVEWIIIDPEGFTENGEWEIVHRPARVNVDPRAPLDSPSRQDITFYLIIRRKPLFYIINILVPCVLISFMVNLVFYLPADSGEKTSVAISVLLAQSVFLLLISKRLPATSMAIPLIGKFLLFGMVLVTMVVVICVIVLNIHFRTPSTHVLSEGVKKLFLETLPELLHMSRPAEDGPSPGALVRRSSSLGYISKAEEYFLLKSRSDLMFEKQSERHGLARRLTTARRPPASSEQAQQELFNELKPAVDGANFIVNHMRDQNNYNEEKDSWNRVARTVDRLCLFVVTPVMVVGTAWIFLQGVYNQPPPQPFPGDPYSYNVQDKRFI
- protocolSummary: Nicotinic acetylcholine receptor antagonism assay, IONFlux automated patch clamp (Example 203)
- Assay type: cell-based
- measurementParameters: antagonism of ACh-stimulated human alpha1 nAChR current, patch clamp
Entries and their measured IC50 follow.

These solved cases illustrate the format of a correct answer.
{"columns": ["querySmiles", "result"],
 "data": [
  ["CC(C)N(C)[C@@H]1CC[C@H](N2CC[C@H](Nc3ncnc4ccc(C(F)(F)F)cc34)C2=O)[C@H](NC(=O)CCOCCOCCOCCOCCOCCNC(=O)[C@H]2CC(=O)N(C)[C@@H]2c2cccnc2)C1", "≥ 10 µM"],
  ["CC(C)N(C)[C@@H]1CC[C@H](N2CC[C@H](Nc3ncnc4ccc(C(F)(F)F)cc34)C2=O)[C@H](NC(=O)c2ccc(N3CCC(C(=O)NCCOCCOCCNC(=O)[C@H]4CC(=O)N(C)[C@@H]4c4cccnc4)CC3)cc2)C1", "≥ 10 µM"],
  ["CC(C)N(C)[C@@H]1CC[C@H](N2CC[C@H](Nc3ncnc4ccc(C(F)(F)F)cc34)C2=O)[C@H](NC(=O)CCOCCNC(=O)[C@H]2CC[C@@H](NC(=O)COCCNC(=O)[C@H]3CC(=O)N(C)[C@@H]3c3cccnc3)CC2)C1", "≥ 10 µM"]
]}

For `CC(C)N(C)[C@@H]1CC[C@H](N2CC[C@H](Nc3ncnc4ccc(C(F)(F)F)cc34)C2=O)[C@H](NC(=O)[C@H]2CC[C@@H](NC(=O)CCOCCCNC(=O)CCCNC(=O)[C@H]3CC(=O)N(C)[C@@H]3c3cccnc3)CC2)C1` , what is its reported IC50?
≥ 100 µM

Name the recorded IC50 for `CC(C)N(C)[C@@H]1CC[C@H](N2CC[C@H](Nc3ncnc4ccc(C(F)(F)F)cc34)C2=O)[C@H](NC(=O)[C@H]2CC[C@H](NC(=O)CCOC[C@H]3CC[C@H](COCCNC(=O)[C@H]4CC(=O)N(C)[C@@H]4c4cccnc4)CC3)CC2)C1` .
≥ 11.1 µM

What does the record list as IC50 for `CC(C)N(C)[C@@H]1CC[C@H](N2CC[C@H](Nc3ncnc4ccc(C(F)(F)F)cc34)C2=O)[C@H](NC(=O)[C@H]2CC[C@H](C3CCN(C(=O)CCOCCOCCNC(=O)[C@H]4CC(=O)N(C)[C@@H]4c4cccnc4)CC3)CC2)C1` ?
≥ 10 µM

Entry under review: `CC(C)N(C)[C@@H]1CC[C@H](N2CC[C@H](Nc3ncnc4ccc(C(F)(F)F)cc34)C2=O)[C@H](NC(=O)[C@H]2CC[C@H](NC(=O)CCCO[C@H]3CC[C@H](OCCNC(=O)[C@H]4CC(=O)N(C)[C@@H]4c4cccnc4)CC3)CC2)C1` . Reported IC50?
84.6 µM

Quick one: IC50 for `CC(C)N(C)[C@@H]1CC[C@H](N2CC[C@H](Nc3ncnc4ccc(C(F)(F)F)cc34)C2=O)[C@H](NC(=O)CCCN2CCC3(CCN(CCCNC(=O)[C@H]4CC(=O)N(C)[C@@H]4c4cccnc4)CC3)CC2)C1` ?
2.95 µM
